These entries and their values trace back to patent US20070185078A1.

Target: Oxytocin Receptor (CHO-OTR/NFAT-β-Lactamase cells) (Homo sapiens)
Sequence (P30559 whole entry, species assumed): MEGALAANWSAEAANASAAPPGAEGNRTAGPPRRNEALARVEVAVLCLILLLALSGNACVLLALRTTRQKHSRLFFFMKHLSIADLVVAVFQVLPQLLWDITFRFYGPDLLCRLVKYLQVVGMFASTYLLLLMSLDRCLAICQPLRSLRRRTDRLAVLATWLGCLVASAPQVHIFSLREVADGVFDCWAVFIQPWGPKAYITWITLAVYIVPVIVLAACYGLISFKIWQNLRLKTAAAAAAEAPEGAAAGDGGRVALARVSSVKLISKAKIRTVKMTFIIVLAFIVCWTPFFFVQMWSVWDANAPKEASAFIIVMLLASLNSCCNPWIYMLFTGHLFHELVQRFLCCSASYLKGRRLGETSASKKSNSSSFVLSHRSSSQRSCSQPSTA
Assay: Oxytocin Receptor Beta-Lactamase Assay
Settings: oxytocin stimulation 4 hours, read-out: oxytocin antagonist activity, expressed as a Ki value
readout: Ki (nM)
One number for each entry, in nM.

State its Ki for this molecule: `COC(=O)N1Cc2nc(OC)ccc2-n2c(nnc2-c2ccc(-c3ccccc3OC)cc2)C1`
3
